- target_or_system: T1, NRP2v3
- T1 construct: not the NanoLuc-tagged construct m33; also called human NRP2 v3 expressed on Expi293F cells; NRP2a v3
- T1 chain: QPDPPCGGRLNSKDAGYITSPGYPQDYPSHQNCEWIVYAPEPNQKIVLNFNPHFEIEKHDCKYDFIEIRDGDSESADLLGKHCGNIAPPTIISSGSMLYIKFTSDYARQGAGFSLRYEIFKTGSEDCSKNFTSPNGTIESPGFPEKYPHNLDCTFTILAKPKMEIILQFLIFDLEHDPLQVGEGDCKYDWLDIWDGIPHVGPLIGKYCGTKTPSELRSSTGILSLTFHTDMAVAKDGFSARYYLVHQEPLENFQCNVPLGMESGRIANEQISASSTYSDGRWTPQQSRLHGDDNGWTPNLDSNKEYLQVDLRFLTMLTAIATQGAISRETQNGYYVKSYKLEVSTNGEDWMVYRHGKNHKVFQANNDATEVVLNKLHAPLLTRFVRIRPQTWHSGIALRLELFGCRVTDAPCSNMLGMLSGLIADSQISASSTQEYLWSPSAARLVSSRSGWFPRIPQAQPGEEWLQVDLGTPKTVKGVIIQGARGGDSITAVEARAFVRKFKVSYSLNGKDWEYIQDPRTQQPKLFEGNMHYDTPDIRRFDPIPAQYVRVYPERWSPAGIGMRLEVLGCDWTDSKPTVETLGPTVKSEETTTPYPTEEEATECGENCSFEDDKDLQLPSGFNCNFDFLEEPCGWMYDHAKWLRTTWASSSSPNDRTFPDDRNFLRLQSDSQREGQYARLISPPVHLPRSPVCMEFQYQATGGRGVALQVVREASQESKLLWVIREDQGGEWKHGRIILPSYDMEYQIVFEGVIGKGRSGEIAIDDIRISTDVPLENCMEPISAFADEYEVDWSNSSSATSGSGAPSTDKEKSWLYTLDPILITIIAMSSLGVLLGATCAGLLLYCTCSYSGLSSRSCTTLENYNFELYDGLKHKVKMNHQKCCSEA
- experimental_protocol: flow cytometry, Expi293F cells transfected with the target, fluorescent anti-mouse secondary; MFI signal relative to mock-transfected cells
recorded_metric: binding result

Worked cases, answers included:
>  <binder>
aNRP2-402v2 (antibody, V domains shown, Mouse monoclonal) VH: EVQLVESGGDLVKPGGSLKLSCAASGFTFSNYAMSWVRQTPEKRLEWVASISDGGSYTYYPDNVKGRFTISRDSAKKSLYLQMSHLKSEDTAMYYCTKDGGPREGYFDVWGTGTTVTVSS VL: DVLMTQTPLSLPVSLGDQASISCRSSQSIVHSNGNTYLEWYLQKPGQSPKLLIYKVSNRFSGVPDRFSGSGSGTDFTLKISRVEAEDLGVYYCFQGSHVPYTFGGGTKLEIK

>  <binding result>
binds

$$$$
>  <binder>
aNRP2-37v2 (antibody, V domains shown, Mouse monoclonal (captured by anti-murine kappa, detected with anti-mouse IgG)) VH: DVKLVESGEGLVKPGGSLKLSCAASGFTFSDYALSWVRQTPEKRLEWVAYISSGGDYIYYADTVRGRFTISRDNARNTLYLQMSSLQSEDTAIYYCTRGGQDDYWGQGTTLTVSS VL: DVVMTQTPLSLPVILGDQASISCRSSQSLVHSNGNTYLQWYLQKPGQSPKLLIYKVSNRFSGVPDRFSGSGSGTDFTLKISRVEAEDLGVYFCSQSTHVPFTFGSGTNLEIK

>  <binding result>
no binding

$$$$
>  <binder>
aNRP2-409v3 (antibody, V domains shown, Mouse monoclonal; also called 409 v2; aNRP2-409v2) VH: EVQFVETGGGLVQPKGSLKLSCAASGFTFNTNAMNWVRQAPGKGLEWVARIRTKSNNYATYYADSVKDRFTISRDDSQNILYLQMNNLKTEDTAMYYCVTLDSSGYVWFAYWGQGTLVTVSA VL: DIQMTQSPSSLSASLGERVSLTCRASQDIGSRLNWLQQEPDGTIKRLIYATSSLDSGVPKRFSGSRSGSDYSLTISSLESEDFVDYYCLQYASSPYTFGGGTKLEIK

>  <binding result>
no binding

$$$$
>  <binder>
aNRP2-407v2 (antibody, V domains shown, Mouse monoclonal) VH: EVQLQQSGPELVKPGASVTISCKASGYSFTGYYMHWVKQSHVKSLEWIGRINPYNGATSYSQNFKDKASLTIDKSSSTAYMELHSLTSEDSAVYYCAREETTAPFTYWGQGTLVTVSA VL: DIVMSQSPSSLAVSVGEKVTMSCKSSQSLLYSSNQKNYLAWYQQKPGQSPKLLIYWASTRESGVPDRFTGSGSGTDFTLTISSVQAEDLAVYFCQHYYSYPPTFGGGTKLEIK

>  <binding result>
binds

$$$$
>  <binder>
aNRP2-400v2 (antibody, V domains shown, Mouse monoclonal) VH: EVQLQESGAELARPGASVKLSCKASGYTFRSYGISWVKQRTGQGLEWIGEIYPRSGNTYYDENFKGRATLTADKSSSTAFMELRSLTSEDSAVYFCARSSITAVVAIPYYYAMDYWGQGTSVTVSS VL: DIQMTQTTSSLSASLGDRVTISCSASQGISNYLNWYQQKPDGSVKLLIYYTSSLHSGVPSRFSGSGSGTDYSLTISNLEPEDIATYYCQQYSKLPHTFGGGTKLELK

>  <binding result>
no binding

$$$$

The binder listed as aNRP2-408v2 (antibody, V domains shown, Mouse monoclonal) VH: EVKLVESGGGLVKPGGSLKLSCAASGFTFSSYAMSWVRQTPEKRLEWVASISRGSITYYPDSVKGRFTISRDNAGNILYLQMSSLRSEDTAMYYCAREYYYAMDYWGQGTSVTVSS VL: DIQMTQSPSSLSASLGERVSLTCRASQDIGSRLNWLQQEPDGTIKRLIYATSSLDSGVPKRFSGSRSGSDYSLTISSLESEDFVDYYCLQYASSPYTFGGGTKLEIK has a reported binding result of no binding

Record summary for aNRP2-405v2 (antibody, V domains shown, Mouse monoclonal) VH: EVMLVESGGGLVKPGGSLKLSCAASGFTFRRYAMSWVRQTPEKGLEWVATITSGGSYTYYLDSVKGRITISRDNAKNTLYLQMSSLRSEDTAMYYCARHGIYGGFDYWGQGTTLTVSS VL: DVLMTQTPLSLPVSLGDQASISCRSSQSIVHSDGNTYLEWYLQKPGQSPNLLIYKVSNRFSGVPDRFSGSGSGTDFTLKISRVEAEDLGIYYCFQGSHVPFTFGSGTKLEIK : reported binding result = no binding
